Test Name: in vitro
Experimental Setup: human, hepatocytes
Assay Metric: microsomal CLint (µL/min/mg)

Compound Structure String: C[C@H]1O[C@@H](O[C@H]2[C@@H](O)C[C@H](O[C@H]3[C@@H](O)C[C@H](O[C@H]4CC[C@@]5(C)[C@H](CC[C@@H]6[C@@H]5C[C@@H](O)[C@]5(C)[C@@H](C7=CC(=O)OC7)CC[C@]65O)C4)O[C@@H]3C)O[C@@H]2C)C[C@H](O)[C@@H]1O
microsomal CLint, µL/min/mg: 0.4

A: CC[C@H](C)C(=O)O[C@H]1C[C@H](O)C=C2C=C[C@H](C)[C@H](CC[C@@H](O)C[C@@H](O)CC(=O)O)[C@H]21
B: CC(C)c1nc(N(C)S(C)(=O)=O)nc(-c2ccc(F)cc2)c1/C=C/[C@@H](O)C[C@@H](O)CC(=O)O
Task: Of A versus B , which is the one with smaller reported microsomal CLint? Use the label to indicate which entry you chose.
Result: A

----------
Test Name: Uptake and biliary excretion in human hepatocyte cocultures, single well method (Example 5)
Experimental Setup: hepatocytes
Assay Metric: microsomal CLint (µL/min/mg)
Your answer should be a plain number; it is taken to be in µL/min/mg.

Task: Which microsomal CLint reading was recorded for the molecule C[C@H](CCC(=O)NCCS(=O)(=O)O)[C@H]1CC[C@H]2[C@@H]3[C@H](O)C[C@@H]4C[C@H](O)CC[C@]4(C)[C@H]3C[C@H](O)[C@]12C [taurocholate, taurocholic acid] ?
Result: 23

----------
Test Name: in vitro
Experimental Setup: rat, hepatocytes
Assay Metric: microsomal CLint (µL/min/mg)

Compound: C[C@H]1O[C@@H](O[C@H]2[C@@H](O)C[C@H](O[C@H]3[C@@H](O)C[C@H](O[C@H]4CC[C@@]5(C)[C@H](CC[C@@H]6[C@@H]5C[C@@H](O)[C@]5(C)[C@@H](C7=CC(=O)OC7)CC[C@]65O)C4)O[C@@H]3C)O[C@@H]2C)C[C@H](O)[C@@H]1O [digoxin]
Value Units: µL/min/mg
microsomal CLint: 0.31

a: CC[C@H](C)C(=O)O[C@H]1C[C@H](O)C=C2C=C[C@H](C)[C@H](CC[C@@H](O)C[C@@H](O)CC(=O)O)[C@H]21 [pravastatin]
b: CC(C)c1nc(N(C)S(C)(=O)=O)nc(-c2ccc(F)cc2)c1/C=C/[C@@H](O)C[C@@H](O)CC(=O)O [rosuvastatin]
Task: Of a versus b , which is the one with smaller reported microsomal CLint? Use the label to indicate which entry you chose.
Result: a

Data origin: patent US20160061820A1
